TGI overview
test system: T-47D breast; assay: NCI tumour cell line growth inhibition, 48 h

molecule: CC(=O)Nc1ccccc1S(=O)(=O)c1c(-c2c(C)c(Cl)c(C)c(Cl)c2C)noc1C
experimental_target: T-47D breast
test_readout: TGI
recorded_value: > 100 µM

So what's the measured TGI for this one? Cc1c(O)c(OC2OC(CO)C(O)C(O)C2O)cc2c1CC[C@@H]1C2(C)C(=O)C[C@]2(C)[C@@H]([C@@](C)(O)C(O)CCC(C)(C)O)[C@H](O)C[C@@]12C (some centres not stated)
> 100 µM

Which TGI value belongs to COC(=O)/C=C1/OC(c2ccccc2)=CC1=O ?
49.9 µM

Could you share which TGI value was measured for CCOC(=O)/C(=C/c1c(-c2ccccc2)[nH]c2ccccc12)C(=O)c1ccc(Cl)cc1 ?
8.24 µM

Any idea what its TGI is? The molecule is C=C1CCC2C3(C)COC(c4cccc(Cl)c4)OC3CCC2(C)C1/C=C/C1=CCOC1=O (configuration not stated)
> 100 µM

Need TGI, item N#CCCN(CCC#N)c1ccc(/C=C2\N=C(c3ccccc3)N(NC(=O)c3ccncc3)C2=O)cc1
> 100 µM

Consider the molecule COC(=O)C1CCCCCCCCCCC12SCCCS2 (configuration not stated) and give its measured TGI.
> 100 µM

* * *

tested on: K-562 leukemia; test: NCI tumour cell line growth inhibition, 48 h
test_readout: TGI (µM)
Please give a number only; it is taken to be in µM.

compound: CC1OC(OC2C(OC3CCC4(C)C(CCC5(C)C4CC=C4C6CC(C)(C)CCC6(CO)C(O)CC45C)C3(C)C)OC(C(=O)O)C(OC3OC(COC4OC(CO)C(O)C(O)C4O)C(O)C(O)C3O)C2O)C(O)C(O)C1O (stereo not given)
experimental_target: K-562 leukemia
test_readout: TGI
recorded_value: 15.4

Moving on to another compound below.
Dear colleague, I am looking for the recorded TGI of the following compound: O=C1c2cccnc2-c2nc(-c3ccccc3)cc3c2c1nc1ccccc13
3.91

* * *

system: SF-539 CNS; assay: NCI tumour cell line growth inhibition, 48 h
test_readout: TGI (µM)
Numeric answer only, unit µM assumed.

compound: COc1ccc2c(c1)C(=O)/C(=C/c1ccc(OCC(=O)c3ccc(Cl)cc3)cc1)O2
TGI / µM: 34.8

compound: Cc1ccc2c(c1)C(=O)c1ccc(C)nc1C2=O
TGI / µM: 68.5

compound: COc1ccc(C(NCCNC(c2ccc(OC)c(OC)c2)c2cc3c(cc2O)OCO3)c2cc3c(cc2O)OCO3)cc1OC (stereo not given)
TGI / µM: 6.09

Please look at the following compound next.
Which value of TGI has been reported for COc1ccc(C2=NN(c3ccc(S(N)(=O)=O)cc3)C(c3ccc(Cl)cc3)C2)c(O)c1 (stereo not given) in the records?
22.3

* * *

tested on: KM12 colon; test: NCI tumour cell line growth inhibition, 48 h
# maps each entry to its TGI
Give just the number in µM; leave the unit off.

chemical_smiles: Oc1ccc(-c2nc(-c3ccc(F)cc3)c(-c3ccncc3)[nH]2)cc1
experimental_target: KM12 colon
test_readout: TGI
recorded_value: 72.3

Sample CCOC(=O)C1=C(O)CSC1=Nc1ccc(N=C2SCC(O)=C2C(=O)OCC)cc1 — what was its TGI?
44.9

* * *

test system: COLO 205 colon; test: NCI tumour cell line growth inhibition, 48 h
test_readout: TGI

Field: example entries. Status: answers known.
compound: Nc1ccc(C(=O)O)c2[nH]c3ccccc3c(=O)c12
TGI: > 100 µM
--
compound: COc1cc([C@@H]2c3cc4c(cc3[C@@H](N=Cc3ccc(C(=O)O[C@H]5C[C@H]6OC[C@@]6(OC(C)=O)[C@H]6[C@H](OC(=O)c7ccccc7)[C@]7(O)C[C@H](OC(=O)[C@H](OC(=O)c8ccc(C=N[C@@H]9c%10cc%11c(cc%10[C@@H](c%10cc(OC)c(O)c(OC)c%10)[C@H]%10C(=O)OC[C@@H]%109)OCO%11)cc8)[C@@H](NC(=O)c8ccccc8)c8ccccc8)C(C)=C([C@@H](OC(C)=O)C(=O)[C@]56C)C7(C)C)cc3)C3COC(=O)C32)OCO4)cc(C)c1O (some centres not stated)
TGI: > 50 µM
--
compound: COc1ccc2c(c1)OCC1Cc3cccc(OC)c3OC21 (configuration not stated)
TGI: > 100 µM
--
compound: CCN1C(=O)N(CC)C2C1NN=c1s/c(=C\c3ccc([N+](=O)[O-])cc3)c(=O)n12 (configuration not stated)
TGI: 11.8 µM
--
compound: Cn1cccc1C1CC(=O)N(CCC[Se]C#N)C1=O (configuration not stated)
TGI: 4.88 µM
--
compound: Oc1ccc(-c2nc(-c3ccc(F)cc3)c(-c3ccncc3)[nH]2)cc1
TGI: 40.5 µM

Then this compound:
Entry under review: O=C1/C(=C/c2ccccc2Cl)COc2ccccc21 . Reported TGI?
40.1 µM

* * *

system: SR leukemia; experiment: NCI tumour cell line growth inhibition, 48 h
test_readout: TGI

Solved cases below.
compound: Cc1nc(N=C(N)N)nc2ccc3ccccc3c12
TGI: 2.26 µM
--
compound: Cc1ccc(CCCC(=O)O)cc1C
TGI: > 100 µM
--
compound: COC(=O)c1c(OC(C)=O)ccc2c1c1c(n2Cc2ccccc2)C(=O)c2ccccc2C1=O
TGI: 64.5 µM

Request the reported TGI associated with O=C1C(c2c(O)n(-c3ccccc3)c3ccccc23)=Nc2ccccc21
> 100 µM

Given the entry COC(=O)/C=C1/OC(c2ccccc2)=CC1=O , report its measured TGI.
> 60.8 µM

Can you look up the measured TGI of COC(=O)C(NC(=O)C12CCC(C)(C(=O)O1)C2(C)C)c1cc(C(C)(C)C)c(O)c(C(C)(C)C)c1 (stereo unspecified) for me?
> 100 µM

Please look up its TGI: CC(C)=CCc1c(O)c(CC=C(C)C)c2oc3c(c(=O)c2c1O)C(C=C(C)C)Oc1cc(O)ccc1-3 (stereo unspecified)
8.29 µM

Reported TGI for COc1cc([C@@H]2c3cc4c(cc3[C@@H](N=Cc3ccc(C(=O)O[C@H]5C[C@H]6OC[C@@]6(OC(C)=O)[C@H]6[C@H](OC(=O)c7ccccc7)[C@]7(O)C[C@H](OC(=O)[C@H](OC(=O)c8ccc(C=N[C@@H]9c%10cc%11c(cc%10[C@@H](c%10cc(OC)c(O)c(OC)c%10)[C@H]%10C(=O)OC[C@@H]%109)OCO%11)cc8)[C@@H](NC(=O)c8ccccc8)c8ccccc8)C(C)=C([C@@H](OC(C)=O)C(=O)[C@]56C)C7(C)C)cc3)C3COC(=O)C32)OCO4)cc(C)c1O (stereo partly specified) : what is it?
> 50 µM

I would be grateful if you could share the reported TGI for O=C1NC(c2ccccc2)C1N(Cc1ccccc1)Cc1ccccc1 (stereo unspecified) .
> 100 µM

* * *

test system: COLO 205 colon; experiment: NCI tumour cell line growth inhibition, 48 h
test_readout: TGI (µM)
Report the figure in µM without appending any unit label.

chemical_smiles: O=C1C(c2c(O)n(-c3ccccc3)c3ccccc23)=Nc2ccccc21
TGI [µM]: 66.3

We next turn to a different molecule, shown below.
TGI for COC(=O)/C=C1/OC(c2ccccc2)=CC1=O ?
29.5

* * *

test system: SN12C renal; experiment: NCI tumour cell line growth inhibition, 48 h
test_readout: GI50

chemical_smiles: Cc1ccc2c(c1)/C(=N\N=C/c1cn(C(C)C)c3ccccc13)C(=O)N2
GI50: 4.47 µM
--
chemical_smiles: N=C(N)c1ccc(-c2ccc(-c3ccccc3)o2)cc1
GI50: 2.72 µM
--
chemical_smiles: CC1(C)CCC(CN2CCN(c3ccc(C(=O)NS(=O)(=O)c4ccc(NCC5CCOCC5)c([N+](=O)[O-])c4)c(Oc4cnc5[nH]ccc5c4)c3)CC2)=C(c2ccc(Cl)cc2)C1
GI50: 2.82 µM

Value lookup for GI50; key = COc1ccc(OC)c(CC(=O)c2ccc(O)c(C(=O)NCCc3ccc(F)cc3)c2)c1
4.26 µM

* * *

tested on: HOP-92 NSCLC; assay: NCI tumour cell line growth inhibition, 48 h
test_readout: log10(TGI) (log10 of the value in µM)
Scale: log10; quantity: TGI; unit before log: µM

Example molecules with recorded log10(TGI):
molecule: O=C(CCl)Nc1ccc(-c2nc3ccccc3s2)cc1
log10(TGI): 0.78
//
molecule: c1ccc2c(-c3ccnc(-c4c[nH]c5ccccc45)n3)c[nH]c2c1
log10(TGI): 0.77
//
molecule: CC1=C(C(=O)Nc2cc(F)c(F)cc2F)C(c2cccc([N+](=O)[O-])c2)C(C(=O)Nc2ccccc2C(F)(F)F)=C(C)N1 (stereo not given)
log10(TGI): 1.51
//
molecule: Cc1ccc2c(c1)/C(=N\N=C/c1cn(C(C)C)c3ccccc13)C(=O)N2
log10(TGI): 1.83

Please look up its log10(TGI): OCC1OC(NC(=S)NCSCCC(F)(F)C(F)(F)C(F)(F)C(F)(F)C(F)(F)C(F)(F)F)C(O)C(O)C1O (stereo not given)
1.82
